tested on: Phakopsora pachyrhizi (the causal agent of Asian soybean rust); experiment: Test A: preventive spray on soybean seedlings, visual disease rating (100 = 100% control; * 50 ppm, ** 10 ppm, *** 250 ppm); type: in vivo; conditions: 50 ppm test suspension; 100 = 100% disease control, 0 = no control
measure-name: Test A disease control rating

Problem: Assign Test A disease control rating to the following record: CCOC(=O)c1cnn(-c2cccc(O/C=C(\OCC)C(F)(F)F)c2)c1
Solution: 0%

Problem: Assign Test A disease control rating to the following record: CCOC(=O)c1cnn(Cc2ccc(O/C=C(\OCC)C(F)(F)F)c(C#N)c2)c1
Solution: 81%

Problem: Assign Test A disease control rating to the following record: CCOC(=O)c1cnn(Cc2ccc(O/C=C(\OCC)C(F)(F)F)c(F)c2F)c1
Solution: 100%

Problem: Assign Test A disease control rating to the following record: CN(C)C(=O)C1=NOC(Cc2ccc(OCC3(C(F)(F)F)OCCO3)cc2)C1 (centres unmarked)
Solution: 50%

Problem: Assign Test A disease control rating to the following record: CCOC(=COc1ccc(NC(=O)C2CC2)cc1)C(F)(F)F
Solution: 0%

The measurements presented in this section are drawn from patent US20240122180A1.
